# Organism: Homo sapiens
# Assay info: Inhibition of complement system in human fetal serum assessed as inhibition of hemolysis at 100 ug/mL incubated for 1 hr by spectrophotometric analysis
Activity calls are given as the source filed them. The rule behind the calls is not given here.
Value type: inhibition

Check out these entries, answers already filled in.
- Chem smiles: "COc1cc(NC(=O)N[C@@H](C)c2ccccc2)ccc1OCc1ccccc1"
  inhibition: "inactive"
- Chem smiles: "COc1ccc(NC(=O)N(C)Cc2ccccc2)cc1OC"
  inhibition: "43.8%"
- Chem smiles: "COc1ccc(NC(=O)N[C@@H](C)c2ccccc2)cc1OCCN1CCCC1"
  inhibition: "inactive"
- Chem smiles: "COc1ccc(NC(=O)NCc2cccc(-c3ccccc3)c2)cc1OC"
  inhibition: "inactive"
- Chem smiles: "COc1ccc(NC(=O)N[C@@H](C)c2ccccc2)cc1O"
  inhibition: "35.3%"
- Chem smiles: "CCCCCCCCCCOc1cc(NC(=O)N[C@@H](C)c2ccccc2)ccc1OC"
  inhibition: "inactive"
- Chem smiles: "CCOc1ccc(NC(=O)N[C@@H](C)c2ccccc2)cc1OC"
  inhibition: "inactive"
- Chem smiles: "COc1ccc(NC(=O)NCc2cccc3ccccc23)cc1OC"
  inhibition: "inactive"

Lab note: each compound below needs its inhibition filled in.
1. COc1cccc(NC(=O)N[C@@H](C)c2ccccc2)c1
2. C[C@H](NC(=O)Nc1ccccc1)c1ccccc1
3. CCOC(=O)COc1ccc(NC(=O)N[C@@H](C)c2ccccc2)cc1OC

Result:
1: inactive; 2: inactive; 3: inactive

* * *

# Assay info: Inhibition of complement system in human fetal serum assessed as inhibition of hemolysis incubated for 1 hr by spectrophotometric analysis
pIC50: −log10 of the molar value.
# binarize pIC50: threshold 6 inclusive, high side 1 (yes), low side 0 (no)

As a guide, the following entries are already answered.
- Compound: "COc1ccc(NC(=O)N(C)[C@@H](C)c2ccccc2)cc1OCCCC(C)C"
  Label: "1 (yes)"
- Compound: "COc1ccc(NC(=O)N(CCO)[C@@H](C)c2ccccc2)cc1OCCCC(C)C"
  Label: "1 (yes)"
- Compound: "C=CCOc1cc(NC(=O)N[C@@H](C)c2ccccc2)ccc1OC"
  Label: "0 (no)"
- Compound: "CCCCOc1cc(NC(=O)N[C@@H](C)c2ccccc2)ccc1OC"
  Label: "1 (yes)"
- Compound: "CCCCCOc1cc(NC(=O)N[C@@H](C)c2ccccc2)cc(OC)c1"
  Label: "1 (yes)"
- Compound: "C=C(C)COc1cc(NC(=O)N[C@@H](C)c2ccccc2)ccc1OC"
  Label: "0 (no)"

Problem: Hi team, for COc1ccc(NC(=O)N[C@@H](C)c2ccccc2)cc1OC , is the recorded pIC50 at or above 6?
Result: 0 (no)

Problem: Hi team, for COc1ccc(NC(=O)N[C@@H](C)c2cccc(O)c2)cc1OCCCC(C)C , is the recorded pIC50 at or above 6?
Result: 1 (yes)

* * *

# Organism: Homo sapiens
# Assay info: Inhibition of complement system in human fetal serum assessed as inhibition of hemolysis at 100 ug/mL incubated for 1 hr by spectrophotometric analysis
Calls of active or inactive are those of the source. No cut-off for these calls is given here.
Value type: inhibition

- Chem smiles: "C[C@H](NC(=O)Nc1ccc(Cl)cc1)c1ccccc1"
  inhibition: "inactive"
- Chem smiles: "CCCCCCCCCCCCOc1cc(NC(=O)N[C@@H](C)c2ccccc2)ccc1OC"
  inhibition: "inactive"
- Chem smiles: "COc1ccc(NC(=O)N[C@H](C)c2ccccc2)cc1OC"
  inhibition: "16.9%"
- Chem smiles: "COc1ccc(NC(=O)N[C@@H](C)c2ccccc2)cc1"
  inhibition: "inactive"
- Chem smiles: "C[C@H](NC(=O)Nc1cccnc1)c1ccccc1"
  inhibition: "inactive"

Lab note: each molecule below needs its inhibition filled in.
1. COc1ccc(N(C)C(=O)N(C)[C@@H](C)c2ccccc2)cc1OCCCC(C)C
2. C=CCOc1ccc(NC(=O)N[C@@H](C)c2ccccc2)cc1OC
3. COc1ccc(NC(=O)N[C@@H](C)c2ccccc2)cc1OCc1ccccc1
4. COc1cc(NC(=O)N[C@@H](C)c2ccccc2)ccc1O

Result:
1. inactive
2. inactive
3. 32.7%
4. 14.6%

Problem: Report inhibition for COc1cc(NC(=O)N[C@@H](C)c2ccccc2)ccc1OCCNC(=O)OC(C)(C)C
Result: inactive
